# tgt: T1, human Y2 receptor (human, UniProt P49146 1-381)
# T1 sequence (looked up): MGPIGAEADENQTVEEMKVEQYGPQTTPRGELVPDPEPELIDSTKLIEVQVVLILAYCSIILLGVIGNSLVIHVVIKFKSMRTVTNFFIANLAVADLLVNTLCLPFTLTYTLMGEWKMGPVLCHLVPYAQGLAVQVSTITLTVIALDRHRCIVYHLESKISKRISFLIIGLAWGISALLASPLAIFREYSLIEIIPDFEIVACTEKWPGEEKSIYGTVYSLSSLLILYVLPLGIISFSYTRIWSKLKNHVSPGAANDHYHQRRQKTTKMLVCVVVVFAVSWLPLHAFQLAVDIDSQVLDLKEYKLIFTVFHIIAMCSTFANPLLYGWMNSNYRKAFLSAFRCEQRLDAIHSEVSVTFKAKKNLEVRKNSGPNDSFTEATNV
# run-description: cell-based or functional assay
Non-standard residues stand in square brackets, D forms with d. No end group written: not given here. 4Amb = NCc1ccc(C(=O)O)cc1
property-measured: GBA EC50 Ratio (vs PYY(3-36)), [35S]GTPγS (ratio)

| binder | test-value |
| --- | --- |
| [4Amb]RRYINLITRQRY-NH2 (N-terminus assumed; SMILES CC[C@H](C)[C@H](NC(=O)[C@H](Cc1ccc(O)cc1)NC(=O)[C@H](CCCNC(=N)N)NC(=O)[C@H](CCCNC(=N)N)NC(=O)c1ccc(CN)cc1)C(=O)N[C@@H](CC(N)=O)C(=O)N[C@@H](CC(C)C)C(=O)N[C@H](C(=O)N[C@H](C(=O)N[C@@H](CCCNC(=N)N)C(=O)N[C@@H](CCC(N)=O)C(=O)N[C@@H](CCCNC(=N)N)C(=O)N[C@@H](Cc1ccc(O)cc1)C(N)=O)[C@@H](C)O)[C@@H](C)CC, also called compound No. 18) [4-Aminomethylbenzoyl-[Arg26, Ile28,31]-PYY(25-36)] | 3 |
